Test system: OVCAR-4 ovarian
Experiment: NCI-60 one-dose screen, 48 h (100 = growth as untreated, 0 = no growth, -100 = all killed)
Conditions: 10 µM unless noted
The panel holds about 83,000 compounds, 20% with a hit somewhere; the sample as a whole holds those more often.
Listed below: growth values for each entry.
measured_attribute: growth (%)

>>> readout_number("c1ccc2c(Cc3csc4ccccc34)csc2c1")
88.3
>>> readout_number("Oc1ccc(CCCCCCc2ccc(O)cc2)cc1")
50
>>> readout_number("O=C(NNC(=S)Nc1ccccc1)c1ccc(Nc2ncnc3c2cnn3-c2cccc(Br)c2)cc1")
106
>>> readout_number("CC(=O)Nc1nonc1-c1nc2ccccc2n1Cc1ccc(C(C)(C)C)cc1")
81
>>> readout_number("Cc1nc2c(-c3cnc(N)nc3)nc(N3CCOCC3)nc2n1C(C)C")
-3.01
>>> readout_number("COc1cc(C2CC(c3cccc(Nc4ccnc5cc(Cl)ccc45)c3)=NN2c2ccc(Cl)cc2)cc(OC)c1OC (stereo not given)")
115
>>> readout_number("COc1cc2c(cc1C)NC(=O)/C2=C\\c1c[nH]c2ccccc12")
64.8
>>> readout_number("COc1cc2c(cc1OC)C(=O)C(Br)CC2 (stereo not given)")
52.7
>>> readout_number("Cc1cc(NC(=O)C2c3ccccc3C(=O)N(CC(C)C)C2c2cccs2)no1 (stereo not given)")
-8.84
>>> readout_number("O=C(/C=C/c1ccccc1)n1c(-c2ccccc2)nc2ccccc21")
101
>>> readout_number("O=C(C(Br)C(Br)c1ccccc1)C(Br)C(Br)c1ccccc1 (stereo not given)")
34.9
>>> readout_number("O=C(CI)NCCNc1cccc2c(S(=O)(=O)O)cccc12")
110
>>> readout_number("Fc1cc(-c2nnc3sc(-c4ccc(Cl)cc4)nn23)c(Cl)cc1Cl")
92.5
>>> readout_number("COC1CC(N)C2OC(c3ccccc3)OCC2O1 (stereo not given)")
97.5
>>> readout_number("Cc1n(Cc2ccc3ccccc3n2)cc[n+]1Cc1ccc2ccccc2c1")
7.17
>>> readout_number("Fc1cnccc1-c1nc2ccc3[nH]ncc3c2c2c1CCCC2")
48.9
>>> readout_number("COc1ccc(Sc2[nH]c(C=O)c3ccccc23)cc1")
60.3
>>> readout_number("Cn1nc(C(F)(F)F)cc1-c1cc(Cl)c(OCc2ccc(Cl)cc2)c(-c2ccc(Cl)c(C(F)(F)F)c2)c1O")
17.2
>>> readout_number("COc1ccc(NC(=O)/C=C/c2ccc(NC(=O)N3CCCC3)cc2)cn1")
101
>>> readout_number("Cc1cc(-c2nnc(/C=C/c3ccc4c(c3)OCO4)o2)n[nH]1")
96.8
>>> readout_number("COc1ccc(Br)c2ccccc12")
117
>>> readout_number("CN1CCN(c2ccc(N3Cc4ccccc4OC4=C3C(=O)c3c(O)ccc(O)c3C4=O)cn2)CC1")
-97.2
>>> readout_number("COc1cc(C2CC(c3cccc(Nc4ccnc5cc(Cl)ccc45)c3)=NN2c2ccccc2)cc(OC)c1OC (stereo not given)")
124
>>> readout_number("COc1cc(/C=C/C(=O)c2c(C)nc3ccccc3c2C)ccc1OCCCOc1cc2c(cc1OC)C(=O)N1CCC[C@H]1C=N2")
-10.9
>>> readout_number("FC(F)(F)c1ccc(/C=N/Nc2nnc3n2N=C(c2ccc(Cl)cc2)CS3)cc1")
17.4
>>> readout_number("COc1ccc(/C=c2\\c(=O)n(-c3ccccc3)c3nn4c(=O)c(=O)[nH]nc4n23)cc1")
107
>>> readout_number("COc1cc(C2Nc3ccccc3S2)cc(CN2CCOCC2)c1O (stereo not given)")
87.5
>>> readout_number("COc1cccc(OCC(O)CN2CCN(c3ccccc3)CC2)c1 (stereo not given)")
97.4
>>> readout_number("O=C1Nc2ccccc2/C1=C/c1c[nH]c2ccccc12")
71.7
>>> readout_number("CNCCCNc1ccnc2cc(Cl)ccc12")
-21.3
>>> readout_number("Clc1ncnc2scc(C3COc4ccccc4O3)c12 (stereo not given)")
92.8
>>> readout_number("Oc1ccc(Nc2ncnc3c2sc2ncccc23)cc1")
84.3
>>> readout_number("O=NN(CC(=O)NNc1ccccc1)CC(=O)NNc1ccccc1")
70.8
>>> readout_number("C=CCOc1c(Br)cc(Br)cc1Br")
63.4
>>> readout_number("Cc1nc2ccc(Nc3nc(Cl)nc(N4CCOCC4)n3)cc2n1Cc1ccccc1")
126
>>> readout_number("O=C(O)/C=C(\\c1nc2ccc([N+](=O)[O-])cc2[nH]1)c1cc(Cl)ccc1O")
8.51
>>> readout_number("CC1=C(O)C(=O)C(c2c(C)cc(C)c(Br)c2C)=C(O)C1=O")
45.6
>>> readout_number("COc1cc(Nc2ccnc3ccc(Br)cc23)cc(OC)c1OC")
62.5
>>> readout_number("[O-]/[N+](=C\\c1ccccc1)CC1(O)CCCCC1")
95.9
>>> readout_number("Cc1ccccc1N1C(c2ccccc2)=NNC12C=CC(=O)c1c(O)cccc12 (stereo not given)")
61.3
>>> readout_number("O=C(O)c1ccccc1N=Cc1ccccc1")
107
>>> readout_number("O=C1Cc2c([nH]c3ccc([N+](=O)[O-])cc23)-c2ccccc2N1")
16.7
>>> readout_number("O=C(Nc1ccccc1Cl)Oc1ccc2ccccc2c1")
101
>>> readout_number("O=C(N=Nc1c(Cl)c(O)c2ccccc2c1O)C(=O)Nc1cccc(C(F)(F)F)c1")
66.9
>>> readout_number("COc1cc(/C=C2\\C(=O)Nc3ccc(N(C)C)cc32)cc(OC)c1OC")
42.1
